- EXPERIMENTAL TARGET: HaloTag-ING2 PHD (mouse Ing2 200-280)
- ASSAY METHOD TEXT: peptide microarray binding signal (635 nm), min-max normalized on array (fraction of array maximum); higher = stronger binding
- APPLIED CONDITIONS: peptide region: Unmod H1 variant; binder concentration: 100 nM
READOUT LABEL: peptide microarray binding signal
No unit in the answer, only the number.

Known results for binders:
- BINDER: "ASGSFKLNKKAAS [Unmod H1 variant A S G S F K L N K K A A S]"
  peptide microarray binding signal: 0.00425
- BINDER: "PKKAKAAKPKKAP [Unmod H1 variant P K K A K A A K P K K A P]"
  peptide microarray binding signal: 0.00751
- BINDER: "SKGTLVQTKGTGA [Unmod H1 variant S K G T L V Q T K G T G A]"
  peptide microarray binding signal: 0.0162
- BINDER: "GTGASGSFKLNKK [Unmod H1 variant G T G A S G S F K L N K K]"
  peptide microarray binding signal: 0.00539
- BINDER: "RLVTTGVLKQTKG [Unmod H1 variant R L V T T G V L K Q T K G]"
  peptide microarray binding signal: 0.0395
- BINDER: "KAKPVKASKPKKA [Unmod H1 variant K A K P V K A S K P K K A]"
  peptide microarray binding signal: 0.00574
- BINDER: "AKPKRAKASKKST [Unmod H1 variant A K P K R A K A S K K S T]"
  peptide microarray binding signal: 0.00638

Query :: Any idea what its peptide microarray binding signal is? The binder is PKKAPVKPKAKSS [Unmod H1 variant P K K A P V K P K A K S S]
Result :: 0.00496
